Tested on: PPARg:RXRa 90nM:30nM, anti-RXR (NR concentration 90 nM, RXRa partner concentration 30 nM)
procedure-text: PBM binding z-score (relative to random genomic background probes); higher = stronger binding; sequences stand for … in GC…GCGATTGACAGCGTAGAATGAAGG
Listed next: entries and their corresponding PBM binding z-score.
Reply with the value as a number alone.

Illustrative cases are given below, each with its answer.
residues=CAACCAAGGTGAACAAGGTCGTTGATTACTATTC assayed_target="PPARg:RXRa 90nM:30nM, anti-RXR (NR concentration 90 nM, RXRa partner concentration 30 nM)" test_value=0.789
residues=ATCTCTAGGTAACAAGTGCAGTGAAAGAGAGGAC assayed_target="PPARg:RXRa 90nM:30nM, anti-RXR (NR concentration 90 nM, RXRa partner concentration 30 nM)" test_value=1.05
residues=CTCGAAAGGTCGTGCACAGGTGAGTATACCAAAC assayed_target="PPARg:RXRa 90nM:30nM, anti-RXR (NR concentration 90 nM, RXRa partner concentration 30 nM)" test_value=3.05

Query :: Output measured PBM binding z-score for this item: GCTAGCAGGCCACTTGGGTCACTCAATGACGGGC
Result :: -0.355

Query :: Output measured PBM binding z-score for this item: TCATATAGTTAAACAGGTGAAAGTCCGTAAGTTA
Result :: 3.42

Query :: Output measured PBM binding z-score for this item: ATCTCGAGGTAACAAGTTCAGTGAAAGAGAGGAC
Result :: 0.456

Query :: Output measured PBM binding z-score for this item: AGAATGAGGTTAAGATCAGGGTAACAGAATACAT
Result :: 1.9

Query :: Output measured PBM binding z-score for this item: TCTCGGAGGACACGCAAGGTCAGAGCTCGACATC
Result :: 1.64

Query :: Output measured PBM binding z-score for this item: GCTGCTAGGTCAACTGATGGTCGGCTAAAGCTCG
Result :: 1.99

Query :: Output measured PBM binding z-score for this item: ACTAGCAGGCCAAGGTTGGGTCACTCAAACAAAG
Result :: 0.491

* * *

Tested on: LXRb homodimer (NR concentration 270 nM)
procedure-text: PBM binding z-score (relative to random genomic background probes); higher = stronger binding; sequences stand for … in GC…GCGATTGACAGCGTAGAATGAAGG
Listed next: entries and their corresponding PBM binding z-score.

Illustrative cases are given below, each with its answer.
residues=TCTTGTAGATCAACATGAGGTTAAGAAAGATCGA test_value=0.134
residues=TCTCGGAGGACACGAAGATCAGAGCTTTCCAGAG test_value=-1.08
residues=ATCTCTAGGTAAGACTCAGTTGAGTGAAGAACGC test_value=0.234
residues=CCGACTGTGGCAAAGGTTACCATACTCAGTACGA test_value=-0.558
residues=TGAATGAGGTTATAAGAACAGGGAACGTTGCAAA test_value=0.118

Query sequence follows.
Query :: Please report PBM binding z-score with LXRb homodimer (NR concentration 270 nM) for item AGAATGAGGTTACCAAAGATCAGGGATACGCTTG .
Result :: 0.0562

* * *

System: FXR:RXRa (NR concentration 270 nM, RXRa partner concentration 90 nM)
procedure-text: PBM binding z-score (relative to random genomic background probes); higher = stronger binding; sequences stand for … in GC…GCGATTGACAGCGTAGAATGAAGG
# PBM binding z-score >= 0.4 gives 1 (yes), anything below gives 0 (no)

residues=AATTCAGGGTCATCGTAGGCCAGAGTACGCACAG classification="1 (yes)"
residues=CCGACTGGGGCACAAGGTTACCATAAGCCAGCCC classification="0 (no)"
residues=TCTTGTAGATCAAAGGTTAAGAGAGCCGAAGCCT classification="1 (yes)"
residues=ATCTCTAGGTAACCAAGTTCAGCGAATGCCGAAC classification="1 (yes)"
residues=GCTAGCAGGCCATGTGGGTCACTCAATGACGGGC classification="0 (no)"

Note: attention shifts to another entry.
Query :: Reported PBM binding z-score reaches at least 0.4 for CCAGACAGGTGAGAAGGTATCTCAGCCTCGATTA ?
Result :: 0 (no)

* * *

Listed next: entries and their corresponding PBM binding z-score.
Test system: PPARg:RXRa DBDmut IVT, anti-RXR (DBD mutation: RXRa K156A/R161A, NR concentration 270 nM, RXRa partner concentration 90 nM)
procedure-text: PBM binding z-score (relative to random genomic background probes); higher = stronger binding; sequences stand for … in GC…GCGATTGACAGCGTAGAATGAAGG
Reply with the value as a number alone.

Illustrative cases are given below, each with its answer.
residues=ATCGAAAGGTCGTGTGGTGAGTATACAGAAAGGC reported_endpoint="PBM binding z-score" test_value=0.568
residues=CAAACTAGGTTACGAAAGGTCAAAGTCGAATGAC reported_endpoint="PBM binding z-score" test_value=7.07
residues=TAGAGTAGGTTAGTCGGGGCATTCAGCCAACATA reported_endpoint="PBM binding z-score" test_value=3.08
residues=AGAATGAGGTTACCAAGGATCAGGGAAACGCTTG reported_endpoint="PBM binding z-score" test_value=3.39
residues=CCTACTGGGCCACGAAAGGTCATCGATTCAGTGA reported_endpoint="PBM binding z-score" test_value=5.98

Query :: Output measured PBM binding z-score for this item: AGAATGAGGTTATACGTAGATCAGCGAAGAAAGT
Result :: 3.8

Query :: Output measured PBM binding z-score for this item: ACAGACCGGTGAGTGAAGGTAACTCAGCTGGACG
Result :: -0.439

Query :: Output measured PBM binding z-score for this item: TCTTGTAGAACAGCAGGTTAAGAAAGCTGGCCAA
Result :: 1.67

Query :: Output measured PBM binding z-score for this item: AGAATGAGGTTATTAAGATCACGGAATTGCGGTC
Result :: 3.48

Query :: Output measured PBM binding z-score for this item: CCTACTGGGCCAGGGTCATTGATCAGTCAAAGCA
Result :: 1.49

Query :: Output measured PBM binding z-score for this item: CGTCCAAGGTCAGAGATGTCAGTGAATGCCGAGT
Result :: 2.09

Query :: Output measured PBM binding z-score for this item: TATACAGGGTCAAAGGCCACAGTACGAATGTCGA
Result :: 2.84

* * *

Test system: RXRa homodimer (NR concentration 180 nM)
procedure-text: PBM binding z-score (relative to random genomic background probes); higher = stronger binding; sequences stand for … in GC…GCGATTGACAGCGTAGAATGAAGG
reported-endpoint: PBM binding z-score
Reply with the value as a number alone.

residues=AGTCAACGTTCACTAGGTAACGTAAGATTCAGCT test_value=0.197
residues=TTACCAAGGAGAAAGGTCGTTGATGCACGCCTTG test_value=2.29
residues=TAGCCTAGGTCTTTGGGCCAGTATAGTACGCATC test_value=-0.392
residues=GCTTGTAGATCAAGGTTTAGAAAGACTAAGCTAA test_value=-0.469

Query :: Output measured PBM binding z-score for this item: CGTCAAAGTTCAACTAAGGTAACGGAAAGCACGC
Result :: 5.09

Query :: Output measured PBM binding z-score for this item: TCTAGGAGGACACGAAAGGTCAGAGCTCGACATC
Result :: 4.21

* * *

Listed next: entries and their corresponding PBM binding z-score.
Tested on: PPARg:RXRa 30nM:10nM, anti-RXR (NR concentration 30 nM, RXRa partner concentration 10 nM)
procedure-text: PBM binding z-score (relative to random genomic background probes); higher = stronger binding; sequences stand for … in GC…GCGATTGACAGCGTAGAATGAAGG

Illustrative cases are given below, each with its answer.
residues=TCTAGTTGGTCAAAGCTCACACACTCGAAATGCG assayed_target="PPARg:RXRa 30nM:10nM, anti-RXR (NR concentration 30 nM, RXRa partner concentration 10 nM)" reported_endpoint="PBM binding z-score" test_value=3.89
residues=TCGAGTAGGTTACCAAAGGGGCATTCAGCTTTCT assayed_target="PPARg:RXRa 30nM:10nM, anti-RXR (NR concentration 30 nM, RXRa partner concentration 10 nM)" reported_endpoint="PBM binding z-score" test_value=0.963
residues=ACTTACGGGTCAACGAGGTTAGAGCACGCGTATA assayed_target="PPARg:RXRa 30nM:10nM, anti-RXR (NR concentration 30 nM, RXRa partner concentration 10 nM)" reported_endpoint="PBM binding z-score" test_value=2.15
residues=TCTTGTAGATCAAGCAGGTTAAAAAAGCCTGAGT assayed_target="PPARg:RXRa 30nM:10nM, anti-RXR (NR concentration 30 nM, RXRa partner concentration 10 nM)" reported_endpoint="PBM binding z-score" test_value=2.5
residues=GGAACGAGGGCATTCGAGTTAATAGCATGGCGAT assayed_target="PPARg:RXRa 30nM:10nM, anti-RXR (NR concentration 30 nM, RXRa partner concentration 10 nM)" reported_endpoint="PBM binding z-score" test_value=0.26
residues=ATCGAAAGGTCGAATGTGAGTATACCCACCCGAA assayed_target="PPARg:RXRa 30nM:10nM, anti-RXR (NR concentration 30 nM, RXRa partner concentration 10 nM)" reported_endpoint="PBM binding z-score" test_value=1.25
residues=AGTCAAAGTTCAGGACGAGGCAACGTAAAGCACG assayed_target="PPARg:RXRa 30nM:10nM, anti-RXR (NR concentration 30 nM, RXRa partner concentration 10 nM)" reported_endpoint="PBM binding z-score" test_value=1.57
residues=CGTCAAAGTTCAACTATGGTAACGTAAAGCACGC assayed_target="PPARg:RXRa 30nM:10nM, anti-RXR (NR concentration 30 nM, RXRa partner concentration 10 nM)" reported_endpoint="PBM binding z-score" test_value=2.24
residues=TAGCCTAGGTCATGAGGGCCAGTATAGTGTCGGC assayed_target="PPARg:RXRa 30nM:10nM, anti-RXR (NR concentration 30 nM, RXRa partner concentration 10 nM)" reported_endpoint="PBM binding z-score" test_value=0.483
residues=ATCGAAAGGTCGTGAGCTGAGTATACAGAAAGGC assayed_target="PPARg:RXRa 30nM:10nM, anti-RXR (NR concentration 30 nM, RXRa partner concentration 10 nM)" reported_endpoint="PBM binding z-score" test_value=1.23

Query :: Output measured PBM binding z-score for this item: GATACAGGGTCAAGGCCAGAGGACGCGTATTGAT
Result :: 2.01

Query :: Output measured PBM binding z-score for this item: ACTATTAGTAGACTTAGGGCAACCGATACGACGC
Result :: 0.331

Query :: Output measured PBM binding z-score for this item: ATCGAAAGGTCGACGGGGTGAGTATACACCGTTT
Result :: 0.859

Query :: Output measured PBM binding z-score for this item: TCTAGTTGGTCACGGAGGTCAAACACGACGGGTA
Result :: 3.76

Query :: Output measured PBM binding z-score for this item: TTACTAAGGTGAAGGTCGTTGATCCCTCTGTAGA
Result :: 5.91

Query :: Output measured PBM binding z-score for this item: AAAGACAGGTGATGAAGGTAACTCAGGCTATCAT
Result :: 0.567

Query :: Output measured PBM binding z-score for this item: ACAATGAGGTTATTAAGATCAGGGAATTGCGGTC
Result :: 0.622
